test system: A549 NSCLC; assay: NCI tumour cell line growth inhibition, 48 h
property: TGI

- C=C1C(=O)O[C@H]2[C@H]1CC/C(CNC(=O)C(C)c1ccc(CC(C)C)cc1)=C\CC[C@@]1(C)O[C@@H]21 (some centres not stated): 6.72 µM
- COc1ccc(C(=O)Nc2ccn(CCOC(=O)c3ccc(OC)cc3)c(=O)n2)cc1: > 100 µM
- CCC1=CCC(P(=O)(c2ccccc2)c2ccccc2)CC1C (configuration not stated): > 100 µM
- CC(/C=C1\CCC(CN(C)C)C1=O)c1cccc(Br)c1 (configuration not stated): > 96.2 µM
- CCn1c(=O)c2c3ccc(O)cc3[nH]c2c2ccc(O)cc21: > 100 µM
- O=C(CO)CC(=O)C(=O)Nc1cccc(C(F)(F)F)c1: > 100 µM
- Nc1n[nH]c(N)n1: > 10000 µM
- CCOC(=O)C1=C(C)C2C3C(=O)OC(=O)C3C1(C)C1C(=O)OC(=O)C21 (configuration not stated): > 100 µM
- O=C(O)CCC1(CCC(=O)O)CCCCCCCCC(CCC(=O)O)(CCC(=O)O)C(=O)C1=O: > 100 µM
- COc1ccc2[nH]cc(Cc3c[nH]c4ccc(OC)cc34)c2c1: 46.9 µM
- N#Cc1ccc(O)c(C2=NCC(c3ccc(-c4ccccc4)cc3)O2)c1 (configuration not stated): 8.06 µM
- CC(=O)c1ccc(Nc2nc3ccccc3c3occc23)cc1: > 100 µM
- Fc1ccc(-c2c(-c3ccncc3)[nH]c3cccnc23)cc1: > 25 µM
- CC1(C)C=C(N2CCN(C3=CC(C)(C)NC(C)(C)C3)CC2)CC(C)(C)N1: > 100 µM
- CCCCCC1CC(C(C)=O)CN1c1ccc(F)cc1 (configuration not stated): > 100 µM
- Cc1cnc2c(c1)C(=O)N(c1ccc(Br)cc1)S2(=O)=O: > 100 µM
- O=C(N/N=C/c1cc(Cl)cc(Cl)c1[OH2+])c1ccncc1.O=S(=O)([O-])[O-].[Fe+2]: 53.9 µM
